- ASSAY_PROTOCOL: wild-type TIM10 yeast growth inhibition – luminescence, uHTS, counter-screen for tim10-1 yeast inhibitor project, primary screen (AID 463195);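 further: wild-type TIM10 isogenic control strain grown at permissive 25 °C; 0% = DMSO yeast wells and 100% = minimal medium wells without yeast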
- TEST_SETTINGS: S. cerevisiae TIM10 strain growth, BacTiter-Glo luminescence, 24 h; at 10 µM; stronger effect = higher value
Out of some 330,000 compounds screened, about 4,600 (1.4%) were called active. This is one part of a sample in which actives are shown more often than they occur.
Kindly state inhibition for each of the entries shown.
Form entry: value (%) — number only.

Problem: Provide inhibition value for the following compound: CC(=O)C1=C(O)C(=O)N(c2cccnc2)C1c1ccc([N+](=O)[O-])cc1 (configuration not stated)
Solution: -3.83

Problem: Provide inhibition value for the following compound: Cc1ccoc1C(=O)Nc1cccc(Oc2ccccc2)c1
Solution: 55.2

Problem: Provide inhibition value for the following compound: Cc1cc(NCc2ccco2)n2c(nc3ccccc32)c1C#N
Solution: -0.142

Problem: Provide inhibition value for the following compound: Cc1ccc(S(=O)(=O)/N=C(/NC(=S)Nc2c(C)n(C)n(-c3ccccc3)c2=O)c2ccccc2)cc1
Solution: 2.05

Problem: Provide inhibition value for the following compound: CC1CC2=C(CC1/C=N/NC(N)=S)C(C)(C)CCC2 (configuration not stated)
Solution: 13.8

Problem: Provide inhibition value for the following compound: COc1ccc(CNC(=O)/C(C#N)=C/c2cccc(OC)c2OC)cc1
Solution: 70.4

Problem: Provide inhibition value for the following compound: CCSc1ccccc1C(=O)NCc1ccc(OC)cc1
Solution: -1.39

Problem: Provide inhibition value for the following compound: COc1ccc(CNC(=O)CCn2cccc2)cc1
Solution: -5.68

Problem: Provide inhibition value for the following compound: CCCCC1S/C(=N/N=C/c2cccs2)NC1=O (configuration not stated)
Solution: 5.03

Problem: Provide inhibition value for the following compound: Cc1cccc(NC(=O)Nc2cccc(Oc3c(F)c(F)c(F)c(F)c3F)c2)c1
Solution: 8.17

Problem: Provide inhibition value for the following compound: CC(Oc1cccc(NC(=O)c2cccs2)c1)C(=O)c1ccccc1 (configuration not stated)
Solution: 8.87

Problem: Provide inhibition value for the following compound: Cc1ccc(C(=O)N2CC(=O)Nc3ccc(F)cc3C2c2ccc(F)cc2)cc1 (configuration not stated)
Solution: 20.6

Problem: Provide inhibition value for the following compound: COc1ccc(Nc2oc(-c3ccccc3Cl)nc2C#N)cc1
Solution: 13.8

Problem: Provide inhibition value for the following compound: O=C1Nc2ccc([N+](=O)[O-])cc2C1=Nc1cccc(CO)c1
Solution: 8.6

Problem: Provide inhibition value for the following compound: COc1ccc(NC(=O)/C(C#N)=C\c2cc(OC)c(OCc3ccc(C(=O)O)cc3)cc2Br)cc1
Solution: 26.4

Problem: Provide inhibition value for the following compound: COc1ccc(NC(=O)/C(Cl)=C(/Cl)S(=O)Cc2ccc(C)cc2)cn1 (configuration not stated)
Solution: 57.6

Problem: Provide inhibition value for the following compound: Cc1cc(C)n(CC(O)CN(c2ccccc2)S(=O)(=O)c2ccc3ccccc3c2)n1 (configuration not stated)
Solution: 48

Problem: Provide inhibition value for the following compound: COc1ccc(CCNC(=O)c2cnc(Cl)c(Cl)c2)cc1
Solution: -23.1

Problem: Provide inhibition value for the following compound: Cc1cccc(N(CC(O)CN(C)C)S(=O)(=O)c2ccccc2)c1 (configuration not stated)
Solution: 0.713

Problem: Provide inhibition value for the following compound: COc1ccc(C(=O)CCC(=O)Nc2ccc(Cl)cc2)cc1
Solution: -25.2

Problem: Provide inhibition value for the following compound: Cc1cccc(OCc2nnc(SCc3nc4cc(C(F)(F)F)ccc4c(=O)[nH]3)o2)c1
Solution: 23

Problem: Provide inhibition value for the following compound: O/N=C(\c1ccc2c(c1)OCCO2)C1CCCCC1
Solution: 3.12

Each recorded value in this set is attributed to PubChem BioAssay AID463195.
